stated-conditions: in acetone, 303.15 K
attribute-measured: solubility (mole fraction)
Give the figure by itself; no unit, no explanation.

Please fill in: solubility (mole fraction) reported for Nc1nc(Cl)cc(Cl)n1 = 0.011

----------
stated-conditions: in isopropanol, 288.15 K
attribute-measured: solubility (mole fraction)

Please fill in: solubility (mole fraction) reported for Nc1nc(Cl)cc(Cl)n1 = 0.000808

----------
stated-conditions: in acetone, 308.15 K
attribute-measured: solubility (mole fraction)

Please fill in: solubility (mole fraction) reported for Nc1nc(Cl)cc(Cl)n1 = 0.0126

----------
stated-conditions: in ethanol, 303.15 K
attribute-measured: solubility (mole fraction)
Give the figure by itself; no unit, no explanation.

Please fill in: solubility (mole fraction) reported for Nc1nc(Cl)cc(Cl)n1 = 0.00215

----------
stated-conditions: in toluene, 308.15 K
attribute-measured: solubility (mole fraction)
Give the figure by itself; no unit, no explanation.

Please fill in: solubility (mole fraction) reported for Nc1nc(Cl)cc(Cl)n1 = 0.00188

----------
stated-conditions: in isopropanol, 313.15 K
attribute-measured: solubility (mole fraction)
Give the figure by itself; no unit, no explanation.

Please fill in: solubility (mole fraction) reported for Nc1nc(Cl)cc(Cl)n1 = 0.00215
